Just for reference, paper PMC9506485 is where these values come from.

assay: Microsomal stability, mouse liver microsomes; assay type: in vitro ADME; settings: CD-1, mouse, microsomes, pH 7.4

{"Smiles Input": "Fc1ccc(-c2cnn3c(NCc4ccccn4)cc(-c4ccccc4F)nc23)cc1", "Prefix Operator": "=", "half-life at 1 μM, min": 49}
{"Smiles Input": "Fc1ccc(-c2cnn3c(NCc4ccccn4)cc(-c4ccoc4)nc23)cc1", "Prefix Operator": "=", "half-life at 1 μM, min": 10}
{"Smiles Input": "Fc1ccc(-c2cnn3c(NCc4ccccn4)cc(-c4cccs4)nc23)cc1", "Prefix Operator": "=", "half-life at 1 μM, min": 34}
{"Smiles Input": "COc1ccc(-c2cc(NCc3ccccn3)n3ncc(-c4ccc(F)cc4)c3n2)cc1", "Prefix Operator": "=", "half-life at 1 μM, min": 63}
{"Smiles Input": "COc1ccc(CNc2cc(-c3ccccc3)nc3c(-c4ccc(F)cc4)cnn23)nc1", "Prefix Operator": ">", "half-life at 1 μM, min": 145}
